B1: TRIM43 (parent)
chain: NNSWIRKNSTMVNSEDIFLLLCLK

variants of: B1; test: protein stability index of a GFP-peptide fusion (GPS, HEK-293T) (PSI 1-6); higher = more stable; details: c terminus: a fixed tail appended;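 further: lentivirally expressed fusions sorted by FACS into six bins by GFP to DsRed ratio, PSI derived from sequencing read proportions per bin multiplied by bin number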
metric: protein stability index
Lab note: record the figure alone, no unit after it.

sequence.text	observed.result
NNSWIRKNSTMVNSEDIFLLCCLK [L21C]	3.87

Reported protein stability index of NNSWIRKNSTMVNSEDIFGLLCLK [L19G] : 1.8

Query NNSWIRKNSTMVNSEDIFLLLCLD [K24D] yields protein stability index of 3.92

// NNSWIRKESTMVNSEDIFLLLCLK [N8E] : protein stability index value = 3.74

protein stability index recorded for this variant, NNSWIRKNSTMVNSEDIRLLLCLK [F18R] , is 2.63

Item: NNSWISKNSTMVNSEDIFLLLCLK [R6S] | protein stability index: 2.97

For reference, reported protein stability index for NNSWIRKKSTMVNSEDIFLLLCLK [N8K] stands at 2.4

Looking up NNSWIRKNSTMVNSRDIFLLLCLK [E15R] , I found its protein stability index recorded as 1.25
